Below: a set of entries, each annotated with reported melting point.

Examples from the recorded data:
[Q] Entry CCc1nc2c(N)nc3cc(OCCN4CCOCC4)ccc3c2n1CC1CCOCC1 [Example 568] has what melting point?
[A] 230 to 232 °C

[Q] # lookup: melting point of CCc1nc2c(N)nc3cc(OCC(=O)N4CCOCC4)ccc3c2n1CCOc1ccccc1 [Example 53]
[A] 208 to 209 °C

[Q] Recorded melting point for CCCn1c(COCC)nc2c(N)nc3cc(OC4CCN(C(=O)OC(C)(C)C)CC4)ccc3c21 [Example 415] , please?
[A] 194 to 195 °C

[Q] # lookup: melting point of CCCn1c(COCC)nc2c(N)nc3ccc(OCCN)cc3c21 [Example 2]
[A] 157 to 159 °C

New cases:
[Q] Dear colleague, I am looking for the recorded melting point of the following compound: CCCn1c(COCC)nc2c(N)nc3ccc(OCCCCCCNC(=O)NC(C)C)cc3c21 [Example 408]
[A] 167 to 169 °C

[Q] Dear colleague, I am looking for the recorded melting point of the following compound: CCCn1c(COCC)nc2c(N)nc3cc(OC4CCNCC4)ccc3c21 [Example 416]
[A] 202 to 204 °C

[Q] Fill blank: measured melting point of the compound CCCc1nc2c(N)nc3cc(OC4CCOC4)ccc3c2n1CC(C)C (stereo not shown) [Example 55] is ____.
[A] 178 to 182 °C

[Q] Any idea what its melting point is? The compound is CCCn1c(CCOC)nc2c(N)nc3cc(OC4CCN(C(N)=O)CC4)ccc3c21 [Example 391]
[A] 207 to 208.5 °C
